target: human liver cathepsin L (Homo sapiens); construct: 8.7 ng/mL human liver cathepsin L (Calbiochem 219402); purchased Calbiochem 219402; host or cells: human liver; test: Cathepsin L assay, IC50 determination; type: biochemical; conditions: Table 1; read-out: IC50 Cat L
Sequence (P07711 114-288 limits assumed): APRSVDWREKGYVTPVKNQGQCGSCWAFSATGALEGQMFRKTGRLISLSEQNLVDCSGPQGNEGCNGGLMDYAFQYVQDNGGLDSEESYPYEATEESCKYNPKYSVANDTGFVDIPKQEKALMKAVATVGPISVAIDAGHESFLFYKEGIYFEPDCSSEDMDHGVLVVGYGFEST
Sequence (P07711 292-333 limits assumed): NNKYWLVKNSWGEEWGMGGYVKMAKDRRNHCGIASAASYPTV
Reported Metric: IC50 (µM)

>>> observed_value("CC(C)(C)OC(=O)N[C@H](COCc1ccccc1)C(=O)NNC(=O)SCC(=O)N1CCCc2ccccc21 [Compound No. 49]")
17.9
>>> observed_value("CC(C)(C)OC(=O)N[C@@H](COCc1ccccc1)C(=O)NNC(=O)SCC(=O)NCCc1ccc(Br)cc1 [Compound No. 52]")
0.58
>>> observed_value("CC(C)C[C@H](NC(=O)OC(C)(C)C)C(=O)NNC(=O)SCC(=O)N1CCCc2ccccc21 [Compound No. 31]")
1.64
>>> observed_value("CC(C)(C)OC(=O)N[C@@H](Cc1c[nH]c2ccccc12)C(=O)NNC(=O)SCC(=O)N1CCc2ccc(Br)cc2C1c1ccccc1 (stereo partly shown) [Compound No. 13]")
1.03
